Just for reference, patent US11730720B2 is where these values come from.

target.desc: recombinant human ALK5 (TGF-βR1) protein (Homo sapiens, UniProt P36897)
Sequence (P36897 34-503): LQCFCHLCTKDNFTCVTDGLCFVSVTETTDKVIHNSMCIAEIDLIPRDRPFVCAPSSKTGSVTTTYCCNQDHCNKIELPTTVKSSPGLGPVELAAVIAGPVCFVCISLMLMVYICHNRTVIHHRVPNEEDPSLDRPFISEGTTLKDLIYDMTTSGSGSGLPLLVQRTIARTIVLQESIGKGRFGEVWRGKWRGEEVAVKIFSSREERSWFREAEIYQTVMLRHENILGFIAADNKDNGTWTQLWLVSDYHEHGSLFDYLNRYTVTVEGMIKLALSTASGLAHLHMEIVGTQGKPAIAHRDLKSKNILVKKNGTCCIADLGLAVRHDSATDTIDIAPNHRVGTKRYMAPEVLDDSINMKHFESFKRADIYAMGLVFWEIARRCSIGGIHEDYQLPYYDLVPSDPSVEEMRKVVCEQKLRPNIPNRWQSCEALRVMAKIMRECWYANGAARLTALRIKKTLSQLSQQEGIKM
experiment: Biochemical ALK5 (TGF-βR1) assay to measure pKi (LANCE Ultra ULight kinase assay)
protocol.conditions: apparent pKi, converted from pIC50 using the Cheng-Prusoff equation
result.type: Ki

CNCCn1ccc(-c2cnc3ccc(-c4c[nH]nc4-c4ccc(F)c(F)c4)nc3c2)n1 [Compound 8-14]    0.398 to 3.16 nM
Fc1ccc(Cl)cc1-c1[nH]cnc1-c1ccc2ncc(Nc3ccc(N4CCNCC4)cn3)cc2n1 [Compound 2-4]    0.0398 to 0.316 nM
CNCCn1ccc(-c2cnc3ccc(-c4c[nH]nc4-c4cccc(COC)c4)nc3c2)n1 [Compound 14-10]    0.398 to 3.16 nM
Cc1oc(=O)oc1CN1CCN(c2cnc3ccc(-c4nc[nH]c4-c4cc(Cl)ccc4F)nc3c2)CC1 [Compound 2-37]    0.0398 to 0.316 nM
COC(=O)CC1CNCCN1CCNc1cnc2ccc(-c3nc[nH]c3-c3cc(Cl)ccc3F)nc2c1 (stereo not shown) [Compound 2-35]    0.0398 to 0.316 nM
Fc1cc(F)c(-c2n[nH]cc2-c2ccc3ncc(-c4ncc5n4CCNC5)cc3n2)cc1Cl [Compound 6-51]    0.398 to 3.16 nM
CC(CO)N1CCN(CCNc2cnc3ccc(-c4c[nH]nc4-c4cc(Cl)c(F)cc4F)nc3c2)CC1 (stereo not shown) [Compound 6-72]    0.0398 to 0.316 nM

###

target.desc: recombinant human ALK5 (TGF-βR1) protein (Homo sapiens)
Construct: purchased Life Technologies PR9075A
experiment: Biochemical ALK5 (TGF-βR1) assay to measure pKi (LANCE Ultra ULight kinase assay)
protocol.conditions: apparent pKi, converted from pIC50 using the Cheng-Prusoff equation
pKi: −log10 of the molar value.
result.type: pKi

CC(C)N1CCN(CCNc2cnc3ccc(-c4c[nH]nc4-c4cc(Cl)c(F)cc4F)nc3c2)CC1    9.50 to 10.40
CNCCn1cc(-c2cnc3ccc(-c4c(-c5cc(Cl)c(F)cc5F)[nH]c5cccnc45)nc3c2)cn1    9.50 to 10.40
CN1CC2CN(c3cnc4ccc(-c5c[nH]nc5-c5cc(Cl)ccc5F)nc4c3)CC21 (stereo not shown)    8.50 to 9.40
C[C@@H]1CN(CCNc2cnc3ccc(-c4c[nH]nc4-c4cc(Cl)ccc4F)nc3c2)C[C@H](C)N1    9.50 to 10.40

###

Let's look at some compounds and their measured IC50.
System: TGF-β-stimulated SMAD3 phosphorylation in BEAS-2B cells
experiment: Cellular ALK5 potency assay, inhibition of TGF-β stimulated pSMAD3 formation in BEAS-2B cells
Assay type: cell-based
protocol.conditions: Homo sapiens, inhibition of TGF-β (10 ng/mL) stimulated pSMAD3 formation, 1 hour compound incubation, read-out: BEAS2B pIC50 (converted)
result.type: IC50

Fc1ccc(Cl)cc1-c1n[nH]cc1-c1ccc2ncc(NCCN3CCC3)cc2n1 [Compound 1-8]    ≤ 20 nM
Fc1cc(F)c(-c2n[nH]cc2-c2ccc3ncc(-c4cc5n(n4)CCNC5)cc3n2)cc1Cl [Compound 6-56]    25.1 to 158 nM
CC1(C)CCCN1CCNc1cnc2ccc(-c3c[nH]nc3-c3cc(Cl)ccc3F)nc2c1 [Compound 1-13]    ≤ 20 nM
NC1CCN(c2cnc3ccc(-c4c[nH]nc4-c4ccc(F)c(F)c4)nc3c2)C1 (stereo not shown) [Compound 8-9]    25.1 to 158 nM
COCc1cccc(-c2n[nH]cc2-c2ccc3ncc(N4CCC(N(C)C)C4)cc3n2)c1 (racemic) [Compound 14-4]    25.1 to 158 nM
Fc1ccc(Cl)cc1-c1[nH]cnc1-c1ccc2ncc(NCCN3CCCC3)cc2n1 [Compound 2-26]    ≤ 20 nM
Fc1ccc(Cl)cc1-c1[nH]cnc1-c1ccc2ncc(N3CCNCC3)cc2n1 [Compound 2-8]    ≤ 20 nM
N[C@@H]1CCCC[C@H]1n1cc(-c2cnc3ccc(-c4nc[nH]c4-c4ccc(F)c(F)c4)cc3c2)cn1 [Compound 23-3]    25.1 to 158 nM
Fc1ccc(-c2n[nH]cc2-c2ccc3ncc(-c4cnn(CC5CNC5)c4)cc3n2)cc1F [Compound 8-15]    25.1 to 158 nM
CN1CC=C(c2cnc3ccc(-c4c[nH]nc4-c4cc(Cl)c(F)cc4F)nc3c2)C1 [Compound 6-43]    ≤ 20 nM
CNC1CCN(c2cnc3ccc(-c4c[nH]nc4-c4ccc(F)c(F)c4)nc3c2)CC1 [Compound 8-6]    25.1 to 158 nM
CCN1CCC(N(C)c2cnc3ccc(-c4c[nH]nc4-c4cc(Cl)ccc4F)nc3c2)CC1 [Compound 1-38]    25.1 to 158 nM
CNCCn1ccc(-c2cnc3ccc(-c4c[nH]nc4-c4cccc(COC)c4)nc3c2)n1 [Compound 14-10]    25.1 to 158 nM
CCN1CCN(CCNc2cnc3ccc(-c4c[nH]nc4-c4cc(Cl)ccc4F)nc3c2)CC1 [Compound 1-11]    ≤ 20 nM
CC1(C)CCCN1CCNc1cnc2ccc(-c3nc[nH]c3-c3cc(Cl)ccc3F)nc2c1 [Compound 2-3]    25.1 to 158 nM
Fc1ccc(Cl)cc1-c1n[nH]cc1-c1ccc2ncc(C3CCNC3)cc2n1 (stereo not shown) [Compound 1-99]    200 to 1260 nM
NCCn1cc(-c2cnc3ccc(-c4c[nH]nc4-c4cc(Cl)ccc4F)nc3c2)cn1 [Compound 1-89]    25.1 to 158 nM
CN1CCN(c2ccc(Nc3cnc4ccc(-c5nc[nH]c5-c5cc(Cl)ccc5F)nc4c3)nc2)CC1 [Compound 2-1]    25.1 to 158 nM
Fc1ccc(Cl)cc1-c1n[nH]cc1-c1ccc2ncc(-c3cn(Cc4cnc5c(c4)CNCC5)nn3)cc2n1 [Compound 1-112]    25.1 to 158 nM
NC1CC=C(c2cnc3ccc(-c4c[nH]nc4-c4cc(Cl)ccc4F)nc3c2)CC1 (stereo not shown) [Compound 1-91]    ≤ 20 nM
NC1CC=C(c2cnc3ccc(-c4c[nH]nc4-c4ccc(F)c(F)c4)nc3c2)CC1 (stereo not shown) [Compound 8-19]    ≤ 20 nM
COCc1cccc(-c2[nH]cnc2-c2ccc3ncc(NCCN4CCNCC4)cc3n2)c1 [Compound 15-1]    200 to 1260 nM
COC(=O)CC1CN(CCNc2cnc3ccc(-c4c[nH]nc4-c4cc(Cl)c(F)cc4F)nc3c2)CCN1 (stereo not shown) [Compound 6-75]    25.1 to 158 nM
CN(C)C1(C)CN(c2cnc3ccc(-c4c[nH]nc4-c4cc(Cl)ccc4F)nc3c2)C1 [Compound 1-33]    25.1 to 158 nM
Fc1ccc(Cl)cc1-c1n[nH]cc1-c1ccc2ncc(N3CC4CNC4C3)cc2n1 (stereo not shown) [Compound 1-64]    ≤ 20 nM
CN1CCN(C2CCN(c3cnc4ccc(-c5c[nH]nc5-c5ccccc5F)nc4c3)CC2)CC1 [Compound 11-1]    25.1 to 158 nM
Fc1cc(F)c(-c2n[nH]cc2-c2ccc3ncc(NC[C@@H]4CCCCN4)cc3n2)cc1Cl [Compound 6-12]    25.1 to 158 nM
CCN1CCN(CCNc2cnc3ccc(-c4c[nH]nc4-c4cc(Cl)c(F)cc4F)nc3c2)CC1 [Compound 6-3]    ≤ 20 nM
CNCCn1cc(-c2cnc3ccc(-c4nn[nH]c4-c4cc(Cl)ccc4F)cc3c2)cn1 [Compound 18-1]    25.1 to 158 nM
Fc1ccc(-c2n[nH]cc2-c2ccc3ncc(N4CCC(N5CCCC5)CC4)cc3n2)cc1F [Compound 8-11]    25.1 to 158 nM
C[C@@H]1CN(CCNc2cnc3ccc(-c4nc[nH]c4-c4cc(Cl)ccc4F)nc3c2)C[C@H](C)N1 [Compound 2-29]    25.1 to 158 nM
